Each item that follows carries a reported mass density.
Assay: mn = molality of the nth substance listed, in mol/kg
Conditions: 313.15 K; 101 kPa; Liquid; m2 = 0
Answer format: numeric, kg/m3 implied, no suffix.

Below: 2 compounds and their reported mass density.
Cc1ccccc1 [toluene] + CC1=CC(=O)c2ccccc2C1=O | 847.9
Cc1ccc(C)cc1 [1,4-dimethylbenzene] + CC1=CC(=O)c2ccccc2C1=O | 843.2

Looking up Cc1ccccc1C [1,2-dimethylbenzene] + CC1=CC(=O)c2ccccc2C1=O , I see its mass density listed as 864

Briefly, mass density measured for c1ccccc1 [benzene] + CC1=CC(=O)c2ccccc2C1=O : 857

Per the records, this compound ( CCc1ccccc1 [ethylbenzene] + CC1=CC(=O)c2ccccc2C1=O ) has mass density equal to 849.5

mass density measured on Cc1cccc(C)c1 [1,3-dimethylbenzene] + CC1=CC(=O)c2ccccc2C1=O = 846.9

###

# viscosity per entry
Settings: 323.15 K; 101 kPa; Liquid
Numbers after ± are expanded uncertainties.
Record the result as number plus unit.

// worked examples, viscosity included
CCc1ccccc1 [ethylbenzene] | 0.4805 ± 0.0086 mPa·s
Cc1ccc(C)cc1 [1,4-dimethylbenzene] | 0.4595 ± 0.0085 mPa·s
Cc1ccccc1C [1,2-dimethylbenzene] | 0.5711 ± 0.0093 mPa·s

The measured viscosity associated with c1ccccc1 [benzene] reads 0.4397 ± 0.0084 mPa·s

// sample Cc1cccc(C)c1 [1,3-dimethylbenzene] , its viscosity was 0.444 ± 0.0085 mPa·s

Given item Cc1ccccc1 [toluene] , the value recorded as its viscosity is 0.4244 ± 0.0083 mPa·s

###

Conditions: 323.15 K; 101 kPa; Liquid
This listing pairs compounds with measured mass density.
Express the result in kg/m3 but write the number alone.

Some solved cases for reference:
Cc1cccc(C)c1 | 838.3
Cc1ccccc1 | 838.7
c1ccccc1 | 846.3
CCc1ccccc1 | 840.5
Cc1ccccc1C | 855.5

Next compound, mass density to be filled in.
So, Cc1ccc(C)cc1 ? Its mass density was 834.5

###

Settings: 333.15 K; 101 kPa; Liquid
Mark each entry True if its viscosity sits below 0.4 mPa·s, and False for all others.

Below are worked cases with known answers.
Cc1ccccc1C | False
Cc1ccccc1 | True
CCc1ccccc1 | False
Cc1cccc(C)c1 | False

Could you now consider this next compound?
Is 0.4 mPa·s strictly greater than the compound's reported viscosity? compound: Cc1ccc(C)cc1
False

###

Assay: mn = molality of the nth substance listed, in mol/kg
Details: 323.15 K; 101 kPa; Liquid; m2 = 0
Numbers after ± are expanded uncertainties.
Measured Parameter: viscosity

Solved cases (5 shown):
Cc1ccccc1C [1,2-dimethylbenzene] + CC1=CC(=O)c2ccccc2C1=O | 0.5711 ± 0.0093 mPa·s
Cc1cccc(C)c1 [1,3-dimethylbenzene] + CC1=CC(=O)c2ccccc2C1=O | 0.444 ± 0.0085 mPa·s
c1ccccc1 [benzene] + CC1=CC(=O)c2ccccc2C1=O | 0.4397 ± 0.0084 mPa·s
Cc1ccc(C)cc1 [1,4-dimethylbenzene] + CC1=CC(=O)c2ccccc2C1=O | 0.4595 ± 0.0085 mPa·s
CCc1ccccc1 [ethylbenzene] + CC1=CC(=O)c2ccccc2C1=O | 0.4805 ± 0.0086 mPa·s

# evaluate next
So for Cc1ccccc1 [toluene] + CC1=CC(=O)c2ccccc2C1=O , the logged viscosity turned out to be 0.4244 ± 0.0083 mPa·s

###

viscosity values by entry
Settings: 303.15 K; 101 kPa; Liquid
Numbers after ± are expanded uncertainties.

Some solved entries appear below for comparison.
Cc1ccccc1 [toluene] | 0.5253 ± 0.009 mPa·s
Cc1cccc(C)c1 [1,3-dimethylbenzene] | 0.549 ± 0.0092 mPa·s

GET /value?item= Cc1ccc(C)cc1 [1,4-dimethylbenzene] &field=viscosity returns 0.5726 ± 0.0093 mPa·s

Entry CCc1ccccc1 [ethylbenzene] ; viscosity = 0.5986 ± 0.0095 mPa·s

The measured viscosity associated with Cc1ccccc1C [1,2-dimethylbenzene] reads 0.7404 ± 0.011 mPa·s

For c1ccccc1 [benzene] the compound record lists viscosity as 0.564 ± 0.0093 mPa·s

###

Conditions: 308.15 K; 101 kPa; Liquid
Measured Parameter: mass density (kg/m3)
Report the figure in kg/m3 without appending any unit label.

Cc1ccccc1C [1,2-dimethylbenzene] | 867.7
Cc1ccccc1 [toluene] | 852.9
Cc1cccc(C)c1 [1,3-dimethylbenzene] | 851.1
Cc1ccc(C)cc1 [1,4-dimethylbenzene] | 847.7
CCc1ccccc1 [ethylbenzene] | 853.5

Sample c1ccccc1 [benzene] ; mass density observed: 862.2

###

Conditions: 318.15 K; 101 kPa; Liquid
Measured Parameter: viscosity (mPa·s)
Please respond with the number in mPa·s and leave the unit unwritten.

Before answering, review these 5 worked examples.
Cc1ccc(C)cc1 [1,4-dimethylbenzene] | 0.4882
Cc1ccccc1 [toluene] | 0.4491
c1ccccc1 [benzene] | 0.4714
Cc1cccc(C)c1 [1,3-dimethylbenzene] | 0.4817
Cc1ccccc1C [1,2-dimethylbenzene] | 0.6117

response.value for CCc1ccccc1 [ethylbenzene] (field: viscosity) = 0.506

###

The compounds listed here are annotated with their mass density.
Conditions: 318.15 K; 101 kPa; Liquid
Numbers after ± are expanded uncertainties.
Kindly report the value followed by its unit.

Sample answers from the record:
CCc1ccccc1 | 844.7 ± 0.8 kg/m3
Cc1ccccc1C | 859.7 ± 0.8 kg/m3

compound c1ccccc1 , mass density observed: 851.6 ± 0.8 kg/m3

Entry Cc1ccc(C)cc1 ; mass density = 838.7 ± 0.8 kg/m3

Value of mass density reported for the compound Cc1cccc(C)c1 is 842.4 ± 0.8 kg/m3

mass density reported for this compound Cc1ccccc1 : 843.5 ± 0.8 kg/m3

###

Parameter: viscosity. Scope: all listed entries.
Details: 313.15 K; 101 kPa; Liquid
± gives the expanded uncertainty stated by the source.
Put down the number, then write its unit next to it.

// below: answered compounds
Cc1ccccc1C | 0.6451 ± 0.0099 mPa·s
c1ccccc1 | 0.5001 ± 0.0088 mPa·s

Entry under test: Cc1cccc(C)c1 . Its viscosity was 0.4967 ± 0.0088 mPa·s

// sample Cc1ccc(C)cc1 , its viscosity was 0.5178 ± 0.0089 mPa·s

// viscosity lookup, compound = CCc1ccccc1 , result: 0.5372 ± 0.009 mPa·s

For Cc1ccccc1 the compound record lists viscosity as 0.4717 ± 0.0086 mPa·s

###

Conditions: 308.15 K; 101 kPa; Liquid
Measured Parameter: viscosity (mPa·s)
Please reply with the bare figure in mPa·s and do not write the unit itself.

The following molecules have reported results that may help.
Cc1ccccc1C [1,2-dimethylbenzene] | 0.69
CCc1ccccc1 [ethylbenzene] | 0.5691
c1ccccc1 [benzene] | 0.5232
Cc1ccc(C)cc1 [1,4-dimethylbenzene] | 0.5374
Cc1ccccc1 [toluene] | 0.4933

// next entry
Quick note, viscosity for Cc1cccc(C)c1 [1,3-dimethylbenzene] landed at 0.5201

###

# key: entry, value: mass density
Assay: mn = molality of the nth substance listed, in mol/kg
Conditions: 323.15 K; 101 kPa; Liquid; m2 = 0
Please give a number only; it is taken to be in kg/m3.

Cc1ccc(C)cc1 [1,4-dimethylbenzene] + CC1=CC(=O)c2ccccc2C1=O | 834.5

What the record says about Cc1ccccc1 [toluene] + CC1=CC(=O)c2ccccc2C1=O : mass density is 838.7

Just so you know, measured mass density for c1ccccc1 [benzene] + CC1=CC(=O)c2ccccc2C1=O came out at 846.3

Cc1cccc(C)c1 [1,3-dimethylbenzene] + CC1=CC(=O)c2ccccc2C1=O has a reported mass density of 838.3

Form field mass density, entry Cc1ccccc1C [1,2-dimethylbenzene] + CC1=CC(=O)c2ccccc2C1=O : 855.5

// recorded mass density for CCc1ccccc1 [ethylbenzene] + CC1=CC(=O)c2ccccc2C1=O : 840.5

###

Test: mn = molality of the nth substance listed, in mol/kg
Settings: 333.15 K; 101 kPa; Liquid; m2 = 0
mass density for assorted molecules
Your answer should be a plain number; it is taken to be in kg/m3.

Below, 5 molecules whose answers are already recorded.
CCc1ccccc1 [ethylbenzene] + CC1=CC(=O)c2ccccc2C1=O | 831.6
c1ccccc1 [benzene] + CC1=CC(=O)c2ccccc2C1=O | 835.4
Cc1cccc(C)c1 [1,3-dimethylbenzene] + CC1=CC(=O)c2ccccc2C1=O | 829.6
Cc1ccccc1 [toluene] + CC1=CC(=O)c2ccccc2C1=O | 829.1
Cc1ccccc1C [1,2-dimethylbenzene] + CC1=CC(=O)c2ccccc2C1=O | 847.1

Shifting focus to the molecule that follows.
Per the record, Cc1ccc(C)cc1 [1,4-dimethylbenzene] + CC1=CC(=O)c2ccccc2C1=O has mass density of 825.6
